# TESTED_ON: PKC theta kinase (Homo sapiens)
# Sequence (Q04759 whole entry): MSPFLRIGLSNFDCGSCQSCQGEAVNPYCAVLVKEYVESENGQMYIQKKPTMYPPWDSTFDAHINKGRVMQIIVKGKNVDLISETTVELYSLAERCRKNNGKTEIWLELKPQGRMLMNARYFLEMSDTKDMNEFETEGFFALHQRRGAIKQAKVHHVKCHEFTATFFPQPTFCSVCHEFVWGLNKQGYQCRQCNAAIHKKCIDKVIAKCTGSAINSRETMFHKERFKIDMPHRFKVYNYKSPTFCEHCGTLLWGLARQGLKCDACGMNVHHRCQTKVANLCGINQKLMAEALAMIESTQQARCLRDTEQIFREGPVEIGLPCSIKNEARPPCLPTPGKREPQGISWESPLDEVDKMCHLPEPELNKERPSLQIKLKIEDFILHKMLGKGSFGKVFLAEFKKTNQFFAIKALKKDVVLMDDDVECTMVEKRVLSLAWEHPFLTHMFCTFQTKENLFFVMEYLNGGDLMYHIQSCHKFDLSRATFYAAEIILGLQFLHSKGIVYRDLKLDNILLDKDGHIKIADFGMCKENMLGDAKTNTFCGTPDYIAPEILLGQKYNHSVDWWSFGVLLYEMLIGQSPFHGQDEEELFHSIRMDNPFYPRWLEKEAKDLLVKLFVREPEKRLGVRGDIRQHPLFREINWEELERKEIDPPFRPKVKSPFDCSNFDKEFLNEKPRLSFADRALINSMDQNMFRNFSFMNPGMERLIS
# ASSAY_COMMENT: PKC theta kinase inhibition, coupled-enzyme (NADH absorbance) assay, Ki
# Type: biochemical
# SETTINGS: 240 μM ATP, 18 nM PKC theta kinase, 30° C.
MEASURED_PROPERTY: Ki

Some molecules with recorded Ki:
MOLECULE | Ki
C=C(F)c1cc(-c2n[nH]c3ncccc23)nc(N2CCC(N)CC2)c1 [Compound 106] | < 500 nM
Cc1ccc(N2CCNCC2)nc1-c1n[nH]c2ncccc12 [Compound 3] | < 500 nM
Cc1cc(N2CCN[C@@H](CC(C)C)C2)nc(-c2n[nH]c3ncccc23)c1Cl [Compound 58] | < 500 nM
NC1CCN(c2ccc(F)c(-c3n[nH]c4ncccc34)n2)CC1 [Compound 368] | < 500 nM

Asked: Report Ki for FC(F)(F)c1ccc(N2CCNC(c3cccc(Br)c3)C2)nc1-c1n[nH]c2ncccc12 (centres unmarked) [Compound 172] please.
Given back: < 500 nM

Asked: Report Ki for CC(C)(C)CC(N)C1CCCN(c2ccc(F)c(-c3n[nH]c4ncccc34)n2)C1 (centres unmarked) [Compound 317] please.
Given back: < 50 nM

Asked: Report Ki for CC(C)C(C)(O)C1CN(c2cccc(-c3n[nH]c4ncccc34)n2)CCN1 (centres unmarked) [Compound 178] please.
Given back: < 50 nM

Asked: Report Ki for c1cc(-c2n[nH]c3ncccc23)nc(N2CCNC(C3CC3)C2)c1 (centres unmarked) [Compound 41] please.
Given back: < 50 nM
